- assay-notes: IUF_NPC2a_radial_glia_migration_72hr: Leibniz Research Institute for Environmental Medicine (IUF) 72-hour Neural Progenitor Cell Migration Assay for Radial Glia Migration (NPC2a) (AID 2284299)
The source made the active and inactive calls. The calls were made as follows: active = hit-call score of the fitted dose curve at least 0.9, where 1 is the maximum; inactive = score below 0.9.
Pick one and only one: T = active, F = inactive

Example entries and their recorded answers appear below.
>  <smiles-text>
O=S(=O)(O)C(F)(F)C(F)(F)C(F)(F)C(F)(F)C(F)(F)C(F)(F)F

>  <category-label>
F

$$$$
>  <smiles-text>
C=CC(N)=O

>  <category-label>
F

$$$$
>  <smiles-text>
O=S(=O)(O)C(F)(F)C(F)(F)C(F)(F)C(F)(F)F

>  <category-label>
F

$$$$
>  <smiles-text>
CCOP(=S)(OCC)SCSC(C)(C)C

>  <category-label>
F

$$$$

Q: Check the results log: what was the call for "CO/C=C(/C(=O)OC)c1ccccc1COc1cccc(C(F)(F)F)n1" ?
Result: T

Origin of values: PubChem BioAssay (EPA / NIEHS)
